experimental.protocol: CREB reporter modulators without forskolin, primary screen, cell-based, PC12, CRE-LacZ reporter, unstimulated (AID 1145)
run.parameters: no forskolin, luminescence, 4.5 h, higher = more signal, called active from +8 up or from −8 down
The source made the active and inactive calls.
Recorded z-score, one value per entry.
reported.property: z-score

>  <compound>
CN1C(=O)C2C=CC(C(O)Cc3ccccc3)N(Nc3ccccc3)C2C1=O (centres undefined)

>  <assay.result>
0.626 (inactive)

$$$$
>  <compound>
O=C(NCc1ccc(F)cc1)[C@H]1C[C@H]2C(=O)N[C@@H](Cc3ccccc3)C(=O)N2[C@H]1c1ccc(O)cc1

>  <assay.result>
-0.801 (inactive)

$$$$
>  <compound>
CC(C)(C)OC(=O)CC[C@@]1(C(=O)NCCN2CCOCC2)N=C(c2ccc(OCCCO)cc2)O[C@@H]1c1ccccc1N=[N+]=[N-]

>  <assay.result>
1.55 (inactive)

$$$$
>  <compound>
CN(C)CCCC[C@@H]1NC(=O)[C@H]2C[C@@H](C(=O)NCCCCCNC(=O)CS)[C@@H](c3cccc(OCCO)c3)N2C1=O

>  <assay.result>
-0.114 (inactive)

$$$$
